- Test system: P388 leukemia ip, CD2F1 mice, survival T/C
- Experiment description: NCI In Vivo Anticancer Drug Screen. Data for tumor model P388 Leukemia (intraperitoneal) in CD2F1 (CDF1) mice
- Assay conditions: endpoint: median survival time; dose: 100.0 mg/kg/injection; schedule: Q01DX009 (ip); vehicle: saline; higher = longer survival
- Description: The antitumor activity of compounds was measured in mice bearing transplantable tumors. Survival or tumor size were measured and the results are expressed as the measurement made in the treated group (T) divided by the measurement made in the vehicle treated control group (C). The tumor model used in this assay is P388 Leukemia (intraperitoneal) in CD2F1 (CDF1) mice
Inconclusive results and toxic doses are left out.
Observable: T/C

Ask | Lab note: need T/C for Nc1ncc[nH]c1=O on P388 leukemia ip, CD2F1 mice, survival T/C, anyone have it?
Reply | 97 % of control

Ask | Entry to check: Cn1c(CC(O)c2nc3ccccc3n2C)nc2ccccc21 (stereo not given)
Reply | 112 % of control

Ask | Lookup CCOC(=O)c1cnn(-c2ccccc2)c1N
Reply | 103 % of control

Ask | Entry to check: CC1=NN(c2ccccc2)C(=O)C1N=Nc1ccccc1S(=O)(=O)O (stereo not given)
Reply | 109 % of control

Ask | Item: CCOP(=O)(OCC)Oc1c(OC)cc(C2OCCO2)cc1OC
Reply | 103 % of control

----------
- Tested on: P388 leukemia ip, CD2F1 mice, survival T/C
- Experiment description: NCI In Vivo Anticancer Drug Screen. Data for tumor model P388 Leukemia (intraperitoneal) in CD2F1 (CDF1) mice
- Assay conditions: endpoint: median survival time; dose: 240.0 mg/kg/injection; schedule: Q01DX005 (ip); vehicle: saline with Tween-80; higher = longer survival
Inconclusive results and toxic doses are left out.
Observable: T/C

Ask | Value wanted: T/C (P388 leukemia ip, CD2F1 mice, survival T/C) of entry CCn1cc(C(=O)O)c(=O)c2cc(F)c(-n3cccc3)cc21
Reply | 98 % of control

Ask | Consider next the molecule CCCCc1c(O)c2c(=O)n(C)c(=O)n3c4ccccc4n(c1=O)c23 in the same way.
Reply | 90 % of control

Ask | Let us now turn to CCOC(=O)c1cnc2cc(Cl)ccc2c1N=[N+]=[N-]
Reply | 99 % of control

Ask | Same question, O=S(=O)(c1ccc(Cl)cc1)N(CCCCN(S(=O)(=O)c1ccc(Cl)cc1)S(=O)(=O)c1ccc(Cl)cc1)S(=O)(=O)c1ccc(Cl)cc1 this time
Reply | 90 % of control

Ask | Query Nc1ccc2c(c1)C(=O)N(OS(=O)(=O)c1ccccc1)C2=O next
Reply | 88 % of control

Ask | Consider next the molecule COc1cc(C(Nc2ccccn2)c2cc3c(cc2O)OCO3)cc(OC)c1OC (stereo not drawn) in the same way.
Reply | 94 % of control

Ask | Next: CCC1CCC(=O)NC1=O (stereo not drawn)
Reply | 98 % of control

Ask | Now consider Cn1cc(Cc2c[nH]c3ccccc3c2=O)c2ccccc21 and answer again.
Reply | 97 % of control

----------
Hi there, I'd appreciate the recorded T/C for every entry that follows.
- Test system: P388 leukemia ip, CD2F1 mice, survival T/C
- Experiment description: NCI In Vivo Anticancer Drug Screen. Data for tumor model P388 Leukemia (intraperitoneal) in CD2F1 (CDF1) mice
- Assay conditions: endpoint: median survival time; dose: 120.0 mg/kg/injection; schedule: Q01DX005 (ip); vehicle: saline with Tween-80; higher = longer survival
Toxic doses and inconclusive results are not listed.

Ask | Any idea what T/C was measured for CCOC(=O)C(=O)Nc1cccc(NC(=O)C(=O)OCC)n1 ?
Reply | 94 % of control

Ask | Now try Cc1onc(-c2ccccc2)c1C(=O)OCCOc1ccc(C(F)(F)F)cc1[N+](=O)[O-] .
Reply | 90 % of control

Ask | Item: CCOC(=O)c1c(C(=O)OC)nc2n1-c1ccccc1OC2
Reply | 93 % of control
